- assay-context: in water, 303.15 K
measurement-name: solubility (mole fraction)
Output spec: single numeric token, no unit.

| structure | measurement-name | observed |
| --- | --- | --- |
| COc1cc(NS(=O)(=O)c2ccc(N)cc2)nc(OC)n1 | solubility (mole fraction) | 3.83e-06 |
| COc1cnc(NS(=O)(=O)c2ccc(N)cc2)nc1 | solubility (mole fraction) | 7.19e-06 |
| Nc1ccc(S(=O)(=O)Nc2ncccn2)cc1 | solubility (mole fraction) | 6.2e-06 |
| COc1cc(NS(=O)(=O)c2ccc(N)cc2)ncn1 | solubility (mole fraction) | 4.9e-06 |

Lab note: next compound to report on.
Entry under review: "Nc1ccc(S(=O)(=O)[N-]c2cncc(Cl)n2)cc1.[Na+]" . Reported solubility (mole fraction)?
1.35e-05
